Ref: patent US4016158A

assayProtocol: transcutaneous toxicity in rats
conditionLabel: rat, in vivo, topical or ocular, male rats
measurementName: LD50 at 192 h

Need LD50 at 192 h of CC(C)C1=C(C(=O)O)N2C(=O)[C@@H](NC(=O)[C@H](N)c3ccccc3)[C@H]2SC1 [Example 9] , thanks. > 1600 mg/kg

---

Test system: Staph. aureus oxford U.C. 1061 P(+)
assayProtocol: MIC, diffusion method in gelose medium at pH 7 (Table I)
Format: cell-based
conditionLabel: Staphylococcus aureus, UC1061; Staph. aureus oxford UC 1061, penicillin sensitive, pH 7; read-out: minimum concentration of inhibition
measurementName: MIC (µg/mL)
Give a bare numeral; the unit µg/mL is implied.

Some solved entries appear below for comparison.
CC(C)C1=C(C(=O)O)N2C(=O)[C@@H](NC(=O)Cc3cccs3)[C@H]2SC1 (relative stereo) = 2
N[C@@H](C(=O)N[C@@H]1C(=O)N2C(C(=O)O)=C(C3CCCC3)CS[C@H]12)c1ccccc1 = 0.4

Next, consider the following molecule.
Returns the measured MIC for the input molecule. Input: O=C(Cc1cccs1)NC1C(=O)N2C(C(=O)O)=C(C3CCCC3)CSC12 (stereo not drawn) 1

---

Tested on: Escher. Coli UC 1261
assayProtocol: MIC, diffusion method in gelose medium at pH 7 (Table I)
Format: cell-based
conditionLabel: Escherichia coli, UC1261; Escher. Coli UC 1261, pH 7; read-out: minimum concentration of inhibition
measurementName: MIC

CC(C)C1=C(C(=O)O)N2C(=O)[C@@H](NC(=O)Cc3ccc([N+](=O)[O-])cc3)[C@H]2SC1 (relative stereo) [Example 6] = > 200 µg/mL
CC(C)C1=C(C(=O)O)N2C(=O)[C@@H](NC(=O)[C@H](N)c3ccccc3)[C@H]2SC1 [Example 9] = 40 to 100 µg/mL
CC(C)C1=C(C(=O)O)N2C(=O)[C@@H](NC(=O)Cc3ccc(N)cc3)[C@H]2SC1 (relative stereo) [Example 7] = > 200 µg/mL

Moving on to the next compound.
Item CC(C)C1=C(C(=O)O)N2C(=O)[C@@H](NC(=O)Cc3cccs3)[C@H]2SC1 (relative stereo) [Example 8] has what recorded MIC? > 200 µg/mL

---

Tested on: Strept. hemoly. Todd Hewitt
assayProtocol: MIC, diffusion method in gelose medium at pH 7 (Table I)
Format: cell-based
conditionLabel: Strept. hemoly. Todd Hewitt, pH 7; read-out: minimum concentration of inhibition
MIC reference
# output: bare number, implied unit µg/mL

CC(C)C1=C(C(=O)O)N2C(=O)[C@@H](NC(=O)Cc3ccc(N)cc3)[C@H]2SC1 (relative stereo) = 10

Please provide the recorded MIC for CC(C)C1=C(C(=O)O)N2C(=O)[C@@H](NC(=O)Cc3ccc([N+](=O)[O-])cc3)[C@H]2SC1 (relative stereo) , tested on Strept. hemoly. Todd Hewitt. 5

---

assayProtocol: solubility
Format: physicochemical
conditionLabel: water
measurementName: solubility in water

Use these answered entries as a reference point.
CC(C)C1=C(C(=O)O)N2C(=O)[C@@H](NC(=O)Cc3cccs3)[C@H]2SC1 (relative stereo) = insoluble
N[C@@H](C(=O)N[C@@H]1C(=O)N2C(C(=O)O)=C(C3CCCC3)CS[C@H]12)c1ccccc1 = slightly soluble
Nc1ccc(CC(=O)NC2C(=O)N3C(C(=O)O)=C(C4CCCC4)CSC23)cc1 (stereo not shown) = slightly soluble
O=C(Cc1ccc([N+](=O)[O-])cc1)NC1C(=O)N2C(C(=O)O)=C(C3CCCC3)CSC12 (stereo not shown) = insoluble
CC(C)C1=C(C(=O)O)N2C(=O)[C@@H](NC(=O)Cc3ccc(N)cc3)[C@H]2SC1 (relative stereo) = slightly soluble
O=C(Cc1cccs1)NC1C(=O)N2C(C(=O)O)=C(C3CCCC3)CSC12 (stereo not shown) = slightly soluble

As a next step, examine the compound that follows.
solubility in water for CC(C)C1=C(C(=O)O)N2C(=O)[C@@H](NC(=O)Cc3ccc([N+](=O)[O-])cc3)[C@H]2SC1 (relative stereo) ? insoluble
